Data origin, for the record: the supplement of paper PMC12042874

assay: amyloid nucleation score (Sup35N fusion, yeast selection) (log enrichment); library NNK1; higher = more nucleation; inactive = no reads after selection;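 further: zero at mode of non-aggregating sequences after 7 days selection at 30°C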
Listed substances paired with reported amyloid nucleation score
In your answer, state the number alone without any accompanying words.

HFFDITLKADNSIILSLSKS : 6.55
NVGGFQSLPEYNSYRMRAEQ : 0.26
LTRAWSGWYVTFMGGEILIR : -0.118

Prompt line: // returns reported amyloid nucleation score for input "AWAVGFYPFCRMFRSLYNYW"
Response line: 0.387

Prompt line: // returns reported amyloid nucleation score for input "LGSVDIRAQCLVNMNMLLSS"
Response line: 0.308

Prompt line: // returns reported amyloid nucleation score for input "RRRYGRWMLCCCVVWV"
Response line: -0.147

Prompt line: // returns reported amyloid nucleation score for input "VLLDGAKMSESAEGGISALW"
Response line: -0.161

Prompt line: // returns reported amyloid nucleation score for input "AVRTAFLAAHM"
Response line: -0.64

* * *

experiment: amyloid nucleation score (Sup35N fusion, yeast selection) (log enrichment); library NNK3; higher = more nucleation; inactive = no reads after selection
measured.metric: amyloid nucleation score

RVDRLALLCSTSGINSDFGR : inactive
RYWWYHSYRNGSGSLESYGV : inactive
GTQVYTGGRVYERLRVMSCV : inactive
VRFNSYAFYITIVGGKHTTT : 2.38

Prompt line: // returns reported amyloid nucleation score for input "PWHLIIDLQGWIFLVYEIGQ"
Response line: inactive

Prompt line: // returns reported amyloid nucleation score for input "RNMLVAPDSCMASRWYGVHL"
Response line: inactive

Prompt line: // returns reported amyloid nucleation score for input "AASEPGSKRLEAAQWVPVAS"
Response line: inactive

Prompt line: // returns reported amyloid nucleation score for input "HGQFMWLMYYMNILSFLLGF"
Response line: inactive

Prompt line: // returns reported amyloid nucleation score for input "SRLNFVLVSMQD"
Response line: inactive

* * *

experiment: amyloid nucleation score (Sup35N fusion, yeast selection) (log enrichment); library NNK2; higher = more nucleation; inactive = no reads after selection
measured.metric: amyloid nucleation score
In your answer, state the number alone without any accompanying words.

Consider the reported amyloid nucleation score for these substances:
WRLSLGYPVSALQMRMPGTL : 2.1
RGSNVGMRDLAYRPHSGQMW : 1.68
VLPLFNGIARHPCWNLCMPM : -1.27
SLMFKRRK : 0.317
SEMGTVRRYCLRAYRVCVAY : 0.757

Prompt line: // returns reported amyloid nucleation score for input "GINFVF"
Response line: -0.287

Prompt line: // returns reported amyloid nucleation score for input "SMFSRRNIQKSCFCYWNRLC"
Response line: -0.418

Prompt line: // returns reported amyloid nucleation score for input "ELFQIAVTRTKFLLVQSSYS"
Response line: 1.27

Prompt line: // returns reported amyloid nucleation score for input "RRCEGCN"
Response line: -0.299

Prompt line: // returns reported amyloid nucleation score for input "SRACRFTFD"
Response line: 0.49

Prompt line: // returns reported amyloid nucleation score for input "SCAHKELCQSVLRDVYWCTL"
Response line: -0.224

Prompt line: // returns reported amyloid nucleation score for input "SNFCFSTR"
Response line: 0.328

Prompt line: // returns reported amyloid nucleation score for input "VPWSLGLCSIFRSFK"
Response line: 2.38

Prompt line: // returns reported amyloid nucleation score for input "RLSRCL"
Response line: 4.23

Prompt line: // returns reported amyloid nucleation score for input "VTQRWLAFERWKLPCSLPSH"
Response line: 0.02
